- Experiment Summary: small molecules captured by biotinylated probe aFGF10 – biochemical, small-molecule microarray, fluorescence 635/667, stem cell growth factor project, primary screen (AID 1071);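 further: score merges 667 nm spot intensity and signal to noise from triplicate slides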
- Test Settings: higher = more signal

- Structure: "[N-]=[N+]=NCc1ccccc1C[C@]1(C(=O)NCCN2CCOCC2)N=C(c2ccc(OCCCO)cc2)O[C@H]1c1ccccc1"
  composite z-score: 0.713
- Structure: "C=C(/C(=C/C[C@@H](OC(=O)c1ccncc1)c1ccccc1OCCO)c1cnc2ccccc2c1)C(C)C"
  composite z-score: 1.14
- Structure: "COC(=O)[C@@]1(Cc2ccccc2)[C@H]2c3cc(C(=O)N(C)C)n(Cc4ccccn4)c3C[C@H]2CN1C(=O)c1ccccc1"
  composite z-score: 0.76
- Structure: "O=C1O[C@H](c2ccccc2)[C@H](c2ccccc2)N2[C@H]1[C@@H](C(=O)N1CCN(c3ncccn3)CC1)[C@]1(C(=O)Nc3ccc(C#CCCO)cc31)[C@H]2c1ccccc1OCCO"
  composite z-score: 0.931
- Structure: "[N-]=[N+]=NCc1ccccc1C[C@]1(C(=O)NCCN2CCOCC2)COC(c2ccc(OCCCO)cc2)=N1"
  composite z-score: 0.121
- Structure: "C=C(C(=O)CC[C@H](OC(=O)c1cccnc1)c1ccc(OCCO)cc1)C(C)C"
  composite z-score: 0.404
- Structure: "CCCC=C(CCC)[C@@H](NS(=O)(=O)c1cccc2cccnc12)c1ccc(C(=O)OC)cc1"
  composite z-score: 1.65
